recombinant UMI read abundance (log10) overview
assayProtocol: recombinant UMI read abundance after kanamycin selection (control-corrected) (log10(CPM+1)); higher = more efficient recombination; extreme values may be limits of the assay; sequences stand for … in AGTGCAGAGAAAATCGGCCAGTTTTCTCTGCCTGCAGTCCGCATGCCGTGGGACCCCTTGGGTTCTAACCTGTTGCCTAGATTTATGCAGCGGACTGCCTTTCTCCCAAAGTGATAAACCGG…AGGTTGGTTTCACT; site = the 11-nt donor;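 note: IS621 bridge recombinase in Escherichia coli cells against a fixed T5 target plasmid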
Lab note: write the figure by itself, no unit.

Solved entries (count: 5):
GCTTGCACATGGACCGGTTTTCCCGGTAATCCGTATTTGAT (site GCTTGCACTAT) ... 1.16
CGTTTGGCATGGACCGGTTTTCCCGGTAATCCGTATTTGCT (site CGTTCGGCTAG) ... 0.0122
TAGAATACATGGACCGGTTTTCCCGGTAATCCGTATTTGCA (site TAGAGTACTTG) ... 0.446
TCGAATACATGGACCGGTTTTCCCGGTAATCCGTATTTGAG (site TCGAATACTCT) ... 1.44
GGCACGCCATGGACCGGTTTTCCCGGTAATCCGTATTTGTA (site GTCACGCCTTA) ... 0.00471

### Prompt # return recorded recombinant UMI read abundance (log10) for input AGCTGCGCATGGACCGGTTTTCCCGGTAATCCGTATTTGAA (site AGCTGCGCTTT)
### Response 1.4

### Prompt # return recorded recombinant UMI read abundance (log10) for input TACATGACATGGACCGGTTTTCCCGGTAATCCGTATTTGCT (site TACGTGACTAG)
### Response 0.566

### Prompt # return recorded recombinant UMI read abundance (log10) for input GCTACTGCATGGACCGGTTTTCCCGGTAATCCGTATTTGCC (site GCTAATGCTGG)
### Response 0

### Prompt # return recorded recombinant UMI read abundance (log10) for input ACATTATCATGGACCGGTTTTCCCGGTAATCCGTATTTGCC (site ACATTATCTGG)
### Response 2.56

The reported measurements were obtained from the supplement of paper PMC11208160.
